Experiment: chemical genetic growth profiling, strain panel (AID 1159580);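 further: tested at 20 µM; growth read once vehicle control cultures reached saturation at 30 °C; 1 = growth at the plate median or of vehicle wells; lower values mean less growth of the strain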
Conditions: S. cerevisiae deletion strains, growth OD, locus YJR075W, strain HOC1, active compounds read low
About 2,000 (36%) of roughly 5,500 compounds were called active. Another 18% or so got no clear call; they are omitted. The list shows a part of the results.
Would you kindly list normalized growth for each of these molecules?
Just the number, please.

# normalized growth of "CCCN1CCC[C@@H](c2cccc(C#N)c2)C1" = 1

# normalized growth of "CSC(=NS(=O)(=O)c1ccccc1)SC" = 0.977

# normalized growth of "COc1nc(C)nc(Cl)c1NC1=NCCN1" = 0.99

# normalized growth of "CCCN1CCC[C@@H](c2cccc(O)c2)C1" = 1

# normalized growth of "COc1ccc(C(C)=O)cc1CSC(=NS(=O)(=O)c1ccccc1)Nc1cccc(F)c1" = 0.981

# normalized growth of "CC(=O)CC(=O)Nc1ccccc1Cl" = 1.03

# normalized growth of "CN1CCc2cccc(Cl)c2CC1" = 0.993

----------
Experiment: chemical genetic growth profiling, strain panel (AID 1159580);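 further: tested at 20 µM; growth read once vehicle control cultures reached saturation at 30 °C; 1 = growth at the plate median or of vehicle wells; lower values mean less growth of the strain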
Details: S. cerevisiae deletion strains, growth OD, locus YIL073C, strain SPO22, active compounds read low
The whole screen tested about 5,500 compounds, of which about 2,000 (36%) were called active. Another 18% or so got no clear call; they are omitted. Some of the results follow.
measurement name: normalized growth
Just the number, please.

# normalized growth of "CC(=O)OCC(COC(C)=O)OC(C)=O" = 1.02

# normalized growth of "COc1ccc2c(c1)O[C@H]1c3ccc(OC)cc3OC[C@@H]21" = 0.961

# normalized growth of C=C1C(=O)OC2CC1C(OC(C)=O)C/C(C)=C/CC/C(C)=C/CC[C@]2(C)O (stereo partly specified) = 0.983

# normalized growth of "COc1ccc2c(c1)CCC(c1ccccc1)=C2c1ccc(OCCN2CCCC2)cc1" = 0.3

# normalized growth of C#CCCCCCCCCCCCC(O)CC(O)COC(C)=O (stereo unspecified) = 0.917

# normalized growth of CC(=O)OCC(OC(C)=O)C(OC(C)=O)C(OC(C)=O)C(OC(C)=O)C(COC(C)=O)OC(C)=O (stereo unspecified) = 1.06

# normalized growth of "CO/N=C(\C(=O)N[C@@H]1C(=O)N2C(C(=O)O)=C(CSc3nc(=O)c(O)nn3C)CS[C@H]12)c1csc(N)n1" = 0.941

# normalized growth of CCC(C)c1cnc(CC(C)C)c(=O)n1O (stereo unspecified) = 1.18

# normalized growth of "O=C(O)c1cc2cc(Cc3cccnc3)ccc2o1" = 1.01

# normalized growth of Nc1ccn(C2O[C@H](CO)[C@@H](O)[C@@H]2O)c(=O)n1 (stereo partly specified) = 1.01

# normalized growth of CO[C@@]1(NC(=O)CSCC#N)C(=O)N2C(C(=O)O)=C(CSc3nnnn3C)CSC21 (stereo partly specified) = 1.13

# normalized growth of "COC(=O)C[C@H]1C(C)(C)C(=O)[C@@H]2CC3=C(CC[C@]4(C)C3=CC(=O)O[C@H]4c3ccoc3)[C@@]1(C)C2=O" = 1.09

# normalized growth of "Cc1cccc(Nc2ccccc2C(=O)O)c1C" = 0.905

# normalized growth of "CC(=O)Oc1c(C)cccc1C(=O)O" = 1.05

# normalized growth of "C=C1C(=O)O[C@@H]2C[C@@]3(C)CCC[C@H](C)C3=C[C@H]12" = 0.717

# normalized growth of "Cc1cccc(C(=O)O)c1O" = 1.02

# normalized growth of CC1=CC2C(CC1=O)C(C)=CCC2C(C)C (stereo unspecified) = 0.91

# normalized growth of "NC(=O)c1cccc(N)c1" = 1.02

# normalized growth of "O=C(Cn1ccnc1[N+](=O)[O-])NCCO" = 1.04

# normalized growth of "O=C1OC(c2ccc(O)cc2)(c2ccc(O)cc2)c2ccccc21" = 0.844

# normalized growth of "COc1c(OC)c2occc2c2oc(=O)ccc12" = 0.955

# normalized growth of O=C(C1CCCCC1)N1CC(=O)N2CCc3ccccc3C2C1 (stereo unspecified) = 1.01

# normalized growth of "Oc1ccc(Cl)cc1" = 0.942

# normalized growth of CC(C(=O)O)c1ccc(C(=O)c2cccs2)cc1 (stereo unspecified) = 1.07

# normalized growth of CC(C)NCC(O)c1cc(O)cc(O)c1 (stereo unspecified) = 0.938

# normalized growth of CCCCN1CCCCC1C(=O)Nc1c(C)cccc1C (stereo unspecified) = 0.989

# normalized growth of C#CCCCCCCCCCCCC(=O)CC(O)COC(C)=O (stereo unspecified) = 0.739

# normalized growth of NS(=O)(=O)c1cc2c(cc1Cl)NC(C(Cl)Cl)NS2(=O)=O (stereo unspecified) = 1.06

# normalized growth of "CC(C)C(=O)Nc1ccc([N+](=O)[O-])c(C(F)(F)F)c1" = 0.98

# normalized growth of "COc1cc([C@@H]2c3cc4c(c(O)c3C[C@H]3COC(=O)[C@@H]32)OCO4)cc(OC)c1OC" = 0.923

# normalized growth of CC1(C)C2CC(=O)[C@]3(C)C(CC[C@@]4(C)[C@H](c5ccoc5)OC(=O)[C@H]5O[C@]543)[C@@]2(C)C=C[C@@H]1O (stereo partly specified) = 1.02

# normalized growth of C[N+]1(C)C2CC(OC(=O)[C@@H](CO)c3ccccc3)CC1C1OC12 (stereo partly specified) = 1.07

# normalized growth of "COc1c2ccoc2c(OC)c2oc(=O)ccc12" = 0.954

# normalized growth of "NC(N)=NS(=O)(=O)c1ccc(N)cc1" = 0.989

# normalized growth of CO/N=C(\C(=O)NC1C(=O)N2C(C(=O)O)=C(COC(N)=O)CSC12)c1ccco1 (stereo unspecified) = 0.121

# normalized growth of "Nc1nc2ncc(=O)[nH]c2c(=O)[nH]1" = 0.921

# normalized growth of O=C1[C@H](CCC(O)c2ccc(F)cc2)[C@@H](c2ccc(O)cc2)N1c1ccc(F)cc1 (stereo partly specified) = 0.961

# normalized growth of CC(C)C(C)/C=C/C(C)C1CCC2C3=CC=C4CC(O)CCC4(C)C3CCC21C (stereo unspecified) = 0.863

# normalized growth of "O=C(O)CN(CC(=O)O)Cc1cc2c(-c3ccccc3C(=O)O)c3cc(CN(CC(=O)O)CC(=O)O)c(=O)cc-3oc2cc1O" = 1.08

# normalized growth of "COc1ccc([C@H]2Oc3cc(OC)cc(OC)c3C[C@H]2O)cc1" = 1.07

# normalized growth of "Nc1ccc(N=Nc2ccccc2)c(N)n1" = 0.972

# normalized growth of COc1ccc2c(c1OC)C(=O)OC2[C@H]1c2c(cc3c(c2OC)OCO3)CCN1C (stereo partly specified) = 0.857

# normalized growth of "CC(=O)OCC[C@H](C)CCC=C(C)C" = 1.1

# normalized growth of "CC(=O)N[C@@H](CS)C(=O)O" = 1.07

# normalized growth of "Cc1ccc(Cl)c(Nc2ccccc2C(=O)O)c1Cl" = 0.735

# normalized growth of COC(=O)C(C)c1ccc(C(=O)c2cccs2)cc1 (stereo unspecified) = 0.851
